Target: myeloperoxidase (Homo sapiens (Human))
Sequence (P05164 49-745): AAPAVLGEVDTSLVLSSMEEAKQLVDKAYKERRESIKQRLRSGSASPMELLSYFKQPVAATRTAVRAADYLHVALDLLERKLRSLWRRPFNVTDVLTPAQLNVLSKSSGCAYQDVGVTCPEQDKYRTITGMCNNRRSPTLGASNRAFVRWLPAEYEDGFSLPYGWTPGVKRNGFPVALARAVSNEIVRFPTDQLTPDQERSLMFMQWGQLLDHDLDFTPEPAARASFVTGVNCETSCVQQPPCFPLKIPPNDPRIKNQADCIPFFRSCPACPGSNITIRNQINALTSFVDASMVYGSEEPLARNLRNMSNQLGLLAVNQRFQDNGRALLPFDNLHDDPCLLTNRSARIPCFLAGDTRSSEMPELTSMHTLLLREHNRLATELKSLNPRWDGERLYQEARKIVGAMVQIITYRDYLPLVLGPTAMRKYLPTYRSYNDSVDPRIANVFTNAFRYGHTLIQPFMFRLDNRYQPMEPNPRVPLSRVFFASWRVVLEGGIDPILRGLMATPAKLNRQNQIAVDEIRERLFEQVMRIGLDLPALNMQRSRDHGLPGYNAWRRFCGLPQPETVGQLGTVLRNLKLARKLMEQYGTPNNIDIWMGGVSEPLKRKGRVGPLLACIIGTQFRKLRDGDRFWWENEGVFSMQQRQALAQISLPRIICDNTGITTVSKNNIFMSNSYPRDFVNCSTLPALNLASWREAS
Assay: MPO Peroxidation Assay (Amplex Red Assay)
Type: biochemical
Settings: potency range class
pIC50: −log10 of the molar value.
value kind: pIC50

# compound, pIC50
measured = [
    ("Nc1cc(C(CCNC23CCC(c4ccccc4)(CC2)CC3)c2cnn(CCc3cccc(O)c3)c2)c2nn[nH]c2n1 (centres unmarked) [Example 50]", "6.00 to 7.00"),
    ("Nc1cc(C(CCN[C@@H]2CC[C@@H](Cc3ccccc3)C2)c2cnn(CCc3cccc(O)c3)c2)c2nn[nH]c2n1 (some centres unmarked) [Example 53]", "5.00 to 6.00"),
]

Query :: GET /values?readout=pIC50&item= Nc1cc(C(CCCc2ccc3ccccc3c2)c2cnn(Cc3ccc4c(c3)CCNC4)c2)c2nn[nH]c2n1 (centres unmarked) [Example 7]
Result :: 6.00 to 7.00

Query :: GET /values?readout=pIC50&item= Nc1cc(C(CCN[C@H]2CC[C@H](c3ccccc3)CC2)c2cc[nH]n2)c2nn[nH]c2n1 (some centres unmarked) [Example 36]
Result :: 5.00 to 6.00

Query :: GET /values?readout=pIC50&item= Nc1cc(C(CCCc2ccccc2)c2cnn(Cc3ccc4c(c3)CCNC4)c2)c2nn[nH]c2n1 (centres unmarked) [Example 1]
Result :: 5.00 to 6.00

Query :: GET /values?readout=pIC50&item= Nc1cc(C(CCOc2ccccc2)c2cnn(Cc3ccc4c(c3)CCNC4)c2)c2nn[nH]c2n1 (centres unmarked) [Example 11]
Result :: 6.00 to 7.00

Query :: GET /values?readout=pIC50&item= Nc1cc(C(CCNC2CCc3ccccc32)c2cnn(Cc3ccccc3)c2)c2nn[nH]c2n1 (centres unmarked) [Example 17]
Result :: 6.00 to 7.00
